Reference source for all entries: ChEMBL document CHEMBL5230092

STUDY TARGET: 6-phosphofructo-2-kinase/fructose-2,6-bisphosphatase 3 (Homo sapiens)
ASSAY REMARKS: Inhibition of full-length human PFKFB3 (1 to 520 residues) incubated for 2 hrs in presence of ATP by ADP-Glo assay
IC50 values, listed per item

- MOLECULE: "O=C1NC=NC2C1C(c1ccc(Cl)cc1)=CN2c1ccccc1 (centres undefined)"
  STUDY TARGET: "6-phosphofructo-2-kinase/fructose-2,6-bisphosphatase 3 (Homo sapiens)"
  IC50 (nM): 631
- MOLECULE: "COc1ccc(C2=CN(c3cccc(OC)c3)C3N=CNC(=O)C23)cc1 (centres undefined)"
  STUDY TARGET: "6-phosphofructo-2-kinase/fructose-2,6-bisphosphatase 3 (Homo sapiens)"
  IC50 (nM): 251
- MOLECULE: "O=C1NC=NC2C1C=C(c1ccc(Br)cc1)N2c1ccccc1 (centres undefined)"
  STUDY TARGET: "6-phosphofructo-2-kinase/fructose-2,6-bisphosphatase 3 (Homo sapiens)"
  IC50 (nM): 398
- MOLECULE: "O=C1NC=NC2C1C(c1ccccc1)=CN2c1ccc(Br)cc1 (centres undefined)"
  STUDY TARGET: "6-phosphofructo-2-kinase/fructose-2,6-bisphosphatase 3 (Homo sapiens)"
  IC50 (nM): 398

---

ASSAY REMARKS: Half life in Sprague-Dawley rat at 10 mg/kg, iv by LC-MS/MS analysis
Assay type: ADME, organism-based
CONDITION NOTES: in vivo

- LINE NOTATION: "Cl.O=C(c1ccncc1)c1cc2c(ccc3ccccc32)[nH]1"
  UNIT NAME: "h"
  half-life: 5.5

---

ASSAY REMARKS: Half life in Beagle dog at 6 mg/kg, iv by LC-MS/MS analysis
Format: ADME, organism-based, Canis lupus familiaris
CONDITION NOTES: in vivo

- LINE NOTATION: "Nc1ccc(C(=O)c2cc3c(ccc4ccccc43)[nH]2)cc1"
  UNIT NAME: "h"
  half-life: 5.8

---

ASSAY REMARKS: Half life in iv dosed C57BL/6 mouse by LC-MS/MS analysis
Type: ADME, organism-based
CONDITION NOTES: in vivo
MEASURED PARAMETER: half-life (h)

- LINE NOTATION: "O=C(/C=C/c1ccc2ccccc2n1)c1ccncc1"
  UNIT NAME: "h"
  MEASURED VALUE: 5.1

---

STUDY TARGET: 6-phosphofructo-2-kinase/fructose-2,6-bisphosphatase 3 (Homo sapiens, UniProt Q16875)
Sequence (Q16875 whole entry, the tested form may be a part): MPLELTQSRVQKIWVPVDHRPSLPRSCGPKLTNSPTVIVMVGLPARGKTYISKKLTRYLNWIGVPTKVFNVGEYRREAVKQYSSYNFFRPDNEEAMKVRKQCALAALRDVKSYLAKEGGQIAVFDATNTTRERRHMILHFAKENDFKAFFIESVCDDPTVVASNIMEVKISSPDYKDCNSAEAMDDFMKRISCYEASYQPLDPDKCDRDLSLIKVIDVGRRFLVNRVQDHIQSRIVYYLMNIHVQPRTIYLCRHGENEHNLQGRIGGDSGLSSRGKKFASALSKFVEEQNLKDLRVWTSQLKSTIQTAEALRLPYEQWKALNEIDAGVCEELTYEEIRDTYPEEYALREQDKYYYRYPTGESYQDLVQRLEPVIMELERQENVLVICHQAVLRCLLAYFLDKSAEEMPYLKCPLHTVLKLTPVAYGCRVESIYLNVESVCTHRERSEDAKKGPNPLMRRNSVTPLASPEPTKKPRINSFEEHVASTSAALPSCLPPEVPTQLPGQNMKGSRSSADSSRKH
Assay type: cell-based, MIA PaCa-2
pIC50: −log10 of the molar value.

- LINE NOTATION: "O=C(OCCO)c1ccc(NS(=O)(=O)c2cccc(-c3cc(F)ccc3O)c2)cc1O"
  pIC50: 7.05

---

ASSAY REMARKS: Toxicity in Sprague-Dawley rat assessed as maximum tolerated dose
CONDITION NOTES: in vivo

- COMPOUND: "O=C(/C=C/c1ccc2ccc(C(F)(F)F)cc2n1)c1ccncc1 [PFK-158]"
  MTD: "> 40 mg/kg"

---

ASSAY REMARKS: AUC in Beagle dog at 6 mg/kg, iv by LC-MS/MS analysis
Type: ADME, organism-based, Canis lupus familiaris
Set-up: dose 6 mg/kg, route iv
CONDITION NOTES: in vivo

- LINE NOTATION: "Nc1ccc(C(=O)c2cc3c(ccc4ccccc43)[nH]2)cc1"
  AUC / ng·h/mL: 5070
